# system: Dual specificity tyrosine-phosphorylation-regulated kinase 1B (Homo sapiens, UniProt Q9Y463)
# Sequence (Q9Y463 whole entry): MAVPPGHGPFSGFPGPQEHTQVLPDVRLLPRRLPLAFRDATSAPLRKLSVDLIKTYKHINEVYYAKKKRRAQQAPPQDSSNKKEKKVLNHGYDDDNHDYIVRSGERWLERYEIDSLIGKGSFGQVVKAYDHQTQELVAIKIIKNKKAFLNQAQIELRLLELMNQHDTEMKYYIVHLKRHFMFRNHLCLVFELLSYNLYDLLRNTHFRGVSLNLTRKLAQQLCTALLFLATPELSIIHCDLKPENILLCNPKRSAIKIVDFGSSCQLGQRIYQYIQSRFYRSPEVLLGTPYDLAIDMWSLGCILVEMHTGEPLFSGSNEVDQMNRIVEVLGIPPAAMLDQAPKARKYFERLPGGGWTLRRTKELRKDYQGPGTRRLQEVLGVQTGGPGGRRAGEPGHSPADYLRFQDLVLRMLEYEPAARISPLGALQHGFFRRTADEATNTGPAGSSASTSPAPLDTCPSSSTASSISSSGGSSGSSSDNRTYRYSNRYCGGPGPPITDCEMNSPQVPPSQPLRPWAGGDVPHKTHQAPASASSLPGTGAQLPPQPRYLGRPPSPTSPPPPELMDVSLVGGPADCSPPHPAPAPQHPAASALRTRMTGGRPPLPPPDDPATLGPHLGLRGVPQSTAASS
# assay.procedure: Inhibition of recombinant Dyrk1B (unknown origin) using KKISGRLSPIMTEQ-NH2 peptide substrate
readout.kind: IC50 (nM)
Could you give me the number in nM? Just the number is fine.

Tell me the measured IC50 of O=C(c1cccc(O)c1)c1ccc2cc(O)ccc2c1 , please.
2300

Tell me the measured IC50 of Cn1c(C(=O)c2cccc(O)c2)cc2cc(O)ccc21 , please.
2700

Tell me the measured IC50 of CC(=O)c1cc2cc(O)ccc2s1 , please.
100

Tell me the measured IC50 of COc1ccc2sc(C(=O)N(C)OC)cc2c1 , please.
1600

Tell me the measured IC50 of N#Cc1cccc(C(=O)c2cc3cc(O)ccc3s2)c1 , please.
2300

Values from ChEMBL document CHEMBL3352729
